Test system: Human melanoma A375 cells
Test: In Vivo Models - Inhibition of Tumor Growth (A375 xenograft)
Settings: female athymic mice, 25 mg/kg i.p. daily, Day 11

Molecule	Tumor volume / mm^3
CCNCc1cncc(-c2cnc3[nH]nc(-c4nc5cc(OC)ccc5[nH]4)c3c2)c1 [Cpd 101]	632.3
CCNCc1cncc(-c2cnc3[nH]nc(-c4nc5cc(N6CCN(C)CC6)ccc5[nH]4)c3c2)c1 [Cpd 82]	742.4
CCNCc1cncc(-c2cnc3[nH]nc(-c4nc5ccc(F)cc5[nH]4)c3c2)c1 [Cpd 106]	558.3
CCCNCc1cncc(-c2cnc3[nH]nc(-c4nc5c(COC)cccc5[nH]4)c3c2)c1 [Cpd 78]	558
